// data source = ChEMBL document CHEMBL5058577

# Lookup of reported Population Membrane Permeable-Phenotype (%) keyed by entry
Test system: U2OS
Experiment: Multiplex assay against U2OS
Format: toxicity, cell-based
Test context: human, 12 h, 1 µM, compound concentration 1 uM, replicate 1
Reported metric: Population Membrane Permeable-Phenotype (%)

Compound	Observed result
O=c1nc2[nH]c3ccccc3nc-2c(=O)[nH]1	5
CN(C)C(=O)Cn1cc(-c2ccc(-c3nnc4ccccn34)cc2)cn1	6
COCCn1c(C)c(C)s/c1=N\C(=O)C1C(C)(C)C1(C)C	8
C[C@@H]1CC(=O)Nc2cccc(-c3ccc4c(c3)c(-c3cnn(C)c3)nn4C)c2N1	7
Cc1c(Cc2ccc3ccccc3n2)c2cc(F)ccc2n1CC(=O)O	3
C[C@H](NC(=O)CNC(=O)c1cccc(Cl)c1)c1ccccc1	6
O=C(NCCNCC(O)COc1ccc(O)cc1)N1CCOCC1.O=C(NCCNCC(O)COc1ccc(O)cc1)N1CCOCC1.O=C(O)/C=C/C(=O)O (centres undefined) [XAMOTEROL FUMARATE]	6
CC(C)C[C@H](CO)Nc1nc(S[C@@H](C)c2ccccc2)nc2nc(N)sc12	5
Nc1nc(-c2ccco2)c2cnn(Cc3ccccc3F)c2n1	4

---

# Lookup of reported Population Fragmented Nuclei (%) keyed by entry
Test system: Fibroblast
Experiment: Multiplex assay against human fibroblast
Format: toxicity, cell-based
Test context: 24 h, 10 µM, compound concentration 10 uM, replicate 1
Non-standard residues stand in square brackets, D forms with d. Residues, ends and D or L forms follow the SMILES beside them.
Reported metric: Population Fragmented Nuclei (%)

Compound	Observed result
CC(C)C[C@@H]1NC(=O)[C@@H](C(C)C)NC(=O)[C@@H]2CCCN2C(=O)[C@@H](CC(=O)O)NC(=O)[C@@H](Cc2c[nH]c3ccccc23)NC1=O [BQ-123] (cyclo(L[dW][dD]P[dV]))	19
COCCn1c(C)c(C)s/c1=N\C(=O)C1C(C)(C)C1(C)C	20
COc1cc(Nc2ncc3c(n2)-c2ccc(Cl)cc2C(c2c(F)cccc2OC)=NC3)ccc1C(=O)O	29
C[C@@H]1CC(=O)Nc2cccc(-c3ccc4c(c3)c(-c3cnn(C)c3)nn4C)c2N1	19
COc1c(Nc2ccc(S(C)(=O)=O)nc2C)ncnc1OC1CCN(C(=O)OC(C)C)CC1	20
N[C@](CC1c2ccccc2Oc2ccccc21)(C(=O)O)[C@H]1C[C@@H]1C(=O)O	10
Cc1c(Cc2ccc3ccccc3n2)c2cc(F)ccc2n1CC(=O)O	14
O=c1nc2[nH]c3ccccc3nc-2c(=O)[nH]1	19

---

Test system: U2OS
Experiment: Multiplex assay against U2OS
Assay type: toxicity, cell-based
Test context: human, 24 h, 1 µM, compound concentration 1 uM, replicate 1
# Lookup of reported Population Membrane Permeable-Phenotype (%) keyed by entry
Reported metric: Population Membrane Permeable-Phenotype (%)

Compound	Observed result
CN1C[C@H](C(=O)N[C@]2(C)O[C@@]3(O)[C@@H]4CCCN4C(=O)[C@H](Cc4ccccc4)N3C2=O)C[C@@H]2c3cccc4[nH]cc(c34)C[C@H]21.CS(=O)(=O)O [DIHYDROERGOTAMINE MESYLATE]	2
COc1cc(C(=O)N2CC[C@@H](O)[C@@H](N)C2)cc2nc(-c3cc4ccccc4n3CC3CC3)n(C)c12.Cl	19
COc1cc2nc(N3CCN(C(=O)COc4c(OC)cccc4C(C)C)CC3)nc(N)c2cc1OC.Cl.Cl	6
S=C(NCCCc1c[nH]cn1)NCCCN(Cc1ccc(Cl)c(Cl)c1)c1ccc(Br)cn1	11
Cc1cc(=O)n(C)c2cc(N3C(=O)CC[C@H](NS(=O)(=O)CC(C)C)[C@H]3c3ccc(Cl)cc3)ccc12	6
CC(C)(C)c1ccc(CSc2cnn(C(C)(C)C)c(=O)c2Cl)cc1 [PYRIDABEN]	4
CCCCC[C@H](O)/C=C/[C@H]1[C@H](O)CC(=O)[C@@H]1CCCCCCC(=O)O [ALPROSTADIL]	5
COCCn1c(C)c(C)s/c1=N\C(=O)C1C(C)(C)C1(C)C	5
Cc1cc(-c2ccc3c(c2)CC[C@H]3N2CC3(CCN(C(=O)Cc4cn5cc(C)sc5n4)CC3)C2)ncn1 [PF-5190457]	8
O=C(O)CCC/C=C\CC1C(O)CC(O)C1/C=C/C(O)COc1cccc(Cl)c1 (stereo unspecified) [CLOPROSTENOL]	4
N[C@](CC1c2ccccc2Oc2ccccc21)(C(=O)O)[C@H]1C[C@@H]1C(=O)O	1
COc1cc2nc(N3CCN(C(=O)c4ccco4)CC3)nc(N)c2cc1OC.Cl [PRAZOSIN HYDROCHLORIDE]	8
CC(C)(O)C(=O)N1CCN(c2ccc(C(F)(F)F)c(C3=C(c4c[nH]c5ccccc45)C(=O)NC3=O)c2)CC1	7
O=c1nc2[nH]c3ccccc3nc-2c(=O)[nH]1 [ALLOXAZINE]	4
COc1cc(Nc2ncc3c(n2)-c2ccc(Cl)cc2C(c2c(F)cccc2OC)=NC3)ccc1C(=O)O [ALISERTIB]	9
Cl.Cl.OCCOCCN1CCN(C(c2ccccc2)c2ccc(Cl)cc2)CC1 (stereo unspecified) [HYDROXYZINE HYDROCHLORIDE]	8

---

Test system: HEK-293T
Experiment: Multiplex assay against HEK293T
Assay type: toxicity, cell-based
Test context: human, 48 h, 1 µM, compound concentration 1 uM, replicate 2
Reported metric: Population Pyknosed Nuclei (%)

Compound	Target desc	Reported metric	Observed result
OCCCNc1cc(-c2ccnc(Nc3cccc(Cl)c3)n2)ccn1	HEK-293T	Population Pyknosed Nuclei (%)	17
CN1C[C@H](C(=O)N[C@]2(C)O[C@@]3(O)[C@@H]4CCCN4C(=O)[C@H](Cc4ccccc4)N3C2=O)C[C@@H]2c3cccc4[nH]cc(c34)C[C@H]21.CS(=O)(=O)O [DIHYDROERGOTAMINE MESYLATE]	HEK-293T	Population Pyknosed Nuclei (%)	5
Cc1cc(-c2ccc3c(c2)CC[C@H]3N2CC3(CCN(C(=O)Cc4cn5cc(C)sc5n4)CC3)C2)ncn1 [PF-5190457]	HEK-293T	Population Pyknosed Nuclei (%)	6
Cl.Cl.OCCOCCN1CCN(C(c2ccccc2)c2ccc(Cl)cc2)CC1 (centres undefined) [HYDROXYZINE HYDROCHLORIDE]	HEK-293T	Population Pyknosed Nuclei (%)	6

---

Test system: U2OS
Experiment: Multiplex assay against U2OS
Assay type: toxicity, cell-based
Test context: human, 12 h, 1 µM, compound concentration 1 uM, replicate 2
# Lookup of reported Total Cell Count keyed by entry
Reported metric: Total Cell Count

Compound	Observed result
O=C(NCCNCC(O)COc1ccc(O)cc1)N1CCOCC1.O=C(NCCNCC(O)COc1ccc(O)cc1)N1CCOCC1.O=C(O)/C=C/C(=O)O (stereo unspecified) [XAMOTEROL FUMARATE]	110
Cc1nn(C)c2nc(NNC(=O)Nc3cc(Cl)nc(Cl)c3)cc(C(C)C)c12	131
COc1ccc2c(c1OCc1ccccc1)C[C@@H](C(=O)O)N(C(=O)C(c1ccccc1)c1ccccc1)C2 [OLODANRIGAN]	112
CCCCCCNC(=O)Nc1ccc(S(=O)(=O)Nc2ccc(CCNC[C@H](O)COc3ccc(O)cc3)cc2)cc1 [L-755507]	120
COc1c(Nc2ccc(S(C)(=O)=O)nc2C)ncnc1OC1CCN(C(=O)OC(C)C)CC1 [ADP-597]	95
CCCCC[C@H](O)/C=C/[C@H]1[C@H](O)CC(=O)[C@@H]1CCCCCCC(=O)O [ALPROSTADIL]	132

---

Test system: Fibroblast
Experiment: Multiplex assay against human fibroblast
Assay type: toxicity, cell-based
Test context: 48 h, 1 µM, compound concentration 1 uM, replicate 1
# Lookup of reported Population Tubulin-Different-Phenotype (%) keyed by entry
Reported metric: Population Tubulin-Different-Phenotype (%)

Compound	Units label	Observed result
O=C(O)CCC/C=C\CC1C(O)CC(O)C1/C=C/C(O)COc1cccc(Cl)c1 (configuration not stated) [CLOPROSTENOL]	%	25
CCCCC[C@H](O)/C=C/[C@H]1[C@H](O)CC(=O)[C@@H]1CCCCCCC(=O)O [ALPROSTADIL]	%	30
Nc1nc(-c2ccco2)c2cnn(Cc3ccccc3F)c2n1	%	26
COc1cc(C(=O)N2CC[C@@H](O)[C@@H](N)C2)cc2nc(-c3cc4ccccc4n3CC3CC3)n(C)c12.Cl	%	44
CN1CCC(C(=O)c2cccc(NC(=O)c3c(F)cc(F)cc3F)n2)CC1	%	25
C=CCN1C[C@H](C(=O)N(CCCN(C)C)C(=O)NCC)C[C@@H]2c3cccc4[nH]cc(c34)C[C@H]21 [CABERGOLINE]	%	34
Cc1cc(O)c(-c2ccc([C@@H](C)CN(C)C)cc2)c2c1[nH]c(=O)c1sccc12	%	70
CCC(=O)OCC(=O)[C@@]1(OC(=O)CC)[C@@H](C)C[C@H]2[C@@H]3CCC4=CC(=O)C=C[C@]4(C)[C@@]3(Cl)[C@@H](O)C[C@@]21C [BECLOMETHASONE DIPROPIONATE]	%	61
CCn1c(-c2nc3cc(C(=O)N4CCCC(N)C4)ccc3n2C)cc2ccccc21.Cl (configuration not stated)	%	29
CN1CCN(c2ccc(Nc3c4ccccc4nc4ccccc34)cc2)CC1.Cl.Cl.O	%	26
COCCCN1CCC(NC(=O)c2cc(Cl)c(N)c3c2OCC3)CC1 [PRUCALOPRIDE]	%	38
CC(C)(C)c1ccc(CSc2cnn(C(C)(C)C)c(=O)c2Cl)cc1 [PYRIDABEN]	%	28
Cc1ccc(OCC(O)C(C)NC(C)C)c2c1CCC2.Cl (configuration not stated)	%	23
COC(c1ccccc1)(c1ccccc1)[C@H](Oc1nc(C)cc(C)n1)C(=O)O [AMBRISENTAN]	%	28
Cc1c(Cc2ccc3ccccc3n2)c2cc(F)ccc2n1CC(=O)O [TIMAPIPRANT]	%	25
Cc1cc(NC(=O)NCCN2CCC(O)(Cc3ccccc3)CC2)c2ccccc2n1 [PALOSURAN]	%	15
CN(C)C/C=C/C(=O)Nc1ccc(C(=O)N2CCCC(Nc3ncc(Cl)c(-c4c[nH]c5ccccc45)n3)C2)cc1 (configuration not stated)	%	48
